Catalogue of compounds with associated EC50
- target.entity: Muscarinic acetylcholine receptor M1 (Rattus norvegicus)
- Sequence (P08482 whole entry): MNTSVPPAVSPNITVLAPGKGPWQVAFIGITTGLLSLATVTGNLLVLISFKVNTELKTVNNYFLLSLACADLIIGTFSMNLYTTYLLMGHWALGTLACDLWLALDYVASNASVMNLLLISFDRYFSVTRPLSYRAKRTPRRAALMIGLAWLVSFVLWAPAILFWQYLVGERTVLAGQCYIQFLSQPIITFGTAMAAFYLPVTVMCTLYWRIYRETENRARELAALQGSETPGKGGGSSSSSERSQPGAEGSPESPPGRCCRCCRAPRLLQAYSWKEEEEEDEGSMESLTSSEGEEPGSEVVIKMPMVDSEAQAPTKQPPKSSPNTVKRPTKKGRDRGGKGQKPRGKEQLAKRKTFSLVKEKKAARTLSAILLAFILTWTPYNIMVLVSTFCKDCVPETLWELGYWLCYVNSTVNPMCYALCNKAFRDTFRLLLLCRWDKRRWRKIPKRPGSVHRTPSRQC
- protocol.description: Agonist activity at rat M1 receptor expressed in CHO cells assessed as increase in calcium mobilization measured after 2.5 mins by Fluo-4-AM dye based assay
- Assay type: functional, cell-based
- condition.set: read-out: EC50

{"compound.structure.string": "Cn1ccc2c(Cc3ccc(-c4cscn4)cc3)cc(C(=O)NC3CCOCC3)nc21", "target.entity": "Muscarinic acetylcholine receptor M1 (Rattus norvegicus)", "EC50": "> 30 µM"}
{"compound.structure.string": "Cn1ccc2c(Cc3ccc(-c4nccs4)cc3)cc(C(=O)NC3CCOCC3)nc21", "target.entity": "Muscarinic acetylcholine receptor M1 (Rattus norvegicus)", "EC50": "> 30 µM"}
{"compound.structure.string": "Cn1ccc(-c2ccc(Cc3cc(C(=O)NC4CCOCC4)nc4c3ccn4C)cc2)n1", "target.entity": "Muscarinic acetylcholine receptor M1 (Rattus norvegicus)", "EC50": "> 10 µM"}

Per the records, this compound ( `Cn1ccc2c(Cc3ccc(-c4nccs4)cc3)cc(C(=O)N[C@@H]3CCCC[C@H]3O)nc21` ) has EC50 equal to > 30 µM

* * *

- target.entity: Muscarinic acetylcholine receptor M4 (Homo sapiens)
- Sequence (P08173 whole entry): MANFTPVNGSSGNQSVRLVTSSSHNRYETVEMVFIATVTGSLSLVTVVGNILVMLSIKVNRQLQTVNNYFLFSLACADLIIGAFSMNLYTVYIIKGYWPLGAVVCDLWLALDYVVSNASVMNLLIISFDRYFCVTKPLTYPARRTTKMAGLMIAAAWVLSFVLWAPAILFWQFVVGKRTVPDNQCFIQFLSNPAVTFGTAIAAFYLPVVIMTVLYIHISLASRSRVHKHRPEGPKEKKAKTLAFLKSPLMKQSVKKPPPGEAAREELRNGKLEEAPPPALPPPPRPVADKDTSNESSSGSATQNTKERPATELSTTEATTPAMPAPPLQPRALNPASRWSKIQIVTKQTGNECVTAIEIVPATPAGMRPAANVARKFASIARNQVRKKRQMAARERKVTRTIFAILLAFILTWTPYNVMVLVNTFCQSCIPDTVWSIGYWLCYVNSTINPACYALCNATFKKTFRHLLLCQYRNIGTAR
- protocol.description: Positive allosteric modulation of human M4 receptor expressed in CHO cells co-expressing Gqi5 assessed as increase in acetylcholine-induced calcium mobilization pretreated for 2.5 mins followed by acetylcholine addition and measured after 1 min by Fluo-4-AM dye based assay
pEC50: −log10 of the molar value.
assay.readout: pEC50

Per the records, this molecule ( `Cn1cc(-c2ccc(Cc3cc(C(=O)NC4CCOCC4)nc4c3ccn4C)cn2)cn1` ) has pEC50 equal to < 4.52

* * *

Catalogue of molecules with associated Kp at 0.25 h
- protocol.description: Total brain to plasma partition coefficient, Kp in cannulated Sprague-Dawley rat at 0.2 mg/kg, iv administered via jugular vein as cassette dose measured after 0.25 hrs by LC-MS/MS analysis
- Format: ADME, organism-based
- condition.set: Sprague-Dawley, brain and plasma
Just the number, please, no unit after it.

# example entries with known answers
{"compound.structure.string": "Cn1cc(-c2ccc(Cc3cc(C(=O)NC4CCOCC4)nc4c3ccn4C)cn2)cn1", "Kp at 0.25 h": 0.28}
{"compound.structure.string": "Cn1ccc2c(Cc3ccc(-c4nccs4)cc3)cc(C(=O)N[C@@H]3CCOC[C@H]3O)nc21", "Kp at 0.25 h": 0.21}

Per the records, this molecule ( `Cn1ccc(-c2ccc(Cc3cc(C(=O)N[C@@H]4CCOC[C@H]4O)nc4c3ccn4C)cc2)n1` ) has Kp at 0.25 h equal to 0.11

* * *

Catalogue of compounds with associated Kp at 1 h
- protocol.description: Total brain to plasma partition coefficient, Kp in C57BL/6J mouse at 100 mg/kg, ip after 1 hr by LC-MS/MS analysis
- Format: ADME, organism-based
- condition.set: brain and plasma
Just the number, please, no unit after it.

{"compound.structure.string": "Cn1ccc(-c2ccc(Cc3cc(C(=O)N[C@@H]4CCCC[C@H]4O)nc4c3ccn4C)cn2)n1", "Kp at 1 h": 0.28}
{"compound.structure.string": "Cn1cc(-c2ccc(Cc3cc(C(=O)NC4CCOCC4)nc4c3ccn4C)cn2)cn1", "Kp at 1 h": 0.16}
{"compound.structure.string": "Cn1cc(-c2ccc(Cc3cc(C(=O)N[C@@H]4CCCC[C@H]4O)nc4c3ccn4C)cn2)cn1", "Kp at 1 h": 0.03}

Per the records, this compound ( `Cn1ccc(-c2ccc(Cc3cc(C(=O)N[C@@H]4CCOC[C@H]4O)nc4c3ccn4C)cc2)n1` ) has Kp at 1 h equal to 0.09

* * *

- Tested on: Mus musculus
- protocol.description: Cholinergic toxicity in C57BL/6J mouse assessed as induction of seizure activity at 100 mg/kg, ip measured within 30 mins
- Assay type: organism-based
- condition.set: in vivo, 0.5 h
assay.readout: Activity

{"compound.structure.string": "Cn1ccc2c(Cc3ccc(-c4nccs4)cc3)cc(C(=O)N[C@@H]3CCOC[C@H]3O)nc21", "value.measured": "Toxic"}
{"compound.structure.string": "Cn1cc(-c2ccc(Cc3cc(C(=O)N[C@@H]4CCCC[C@H]4O)nc4c3ccn4C)cn2)cn1", "value.measured": "Toxic"}
{"compound.structure.string": "Cn1ccc(-c2ccc(Cc3cc(C(=O)N[C@@H]4CCCC[C@H]4O)nc4c3ccn4C)cn2)n1", "value.measured": "Toxic"}
{"compound.structure.string": "Cn1ccc(-c2ccc(Cc3cc(C(=O)N[C@@H]4CCOC[C@H]4O)nc4c3ccn4C)cc2)n1", "value.measured": "Toxic"}

* * *

- target.entity: Muscarinic acetylcholine receptor M1 (Rattus norvegicus)
- Sequence (whole entry): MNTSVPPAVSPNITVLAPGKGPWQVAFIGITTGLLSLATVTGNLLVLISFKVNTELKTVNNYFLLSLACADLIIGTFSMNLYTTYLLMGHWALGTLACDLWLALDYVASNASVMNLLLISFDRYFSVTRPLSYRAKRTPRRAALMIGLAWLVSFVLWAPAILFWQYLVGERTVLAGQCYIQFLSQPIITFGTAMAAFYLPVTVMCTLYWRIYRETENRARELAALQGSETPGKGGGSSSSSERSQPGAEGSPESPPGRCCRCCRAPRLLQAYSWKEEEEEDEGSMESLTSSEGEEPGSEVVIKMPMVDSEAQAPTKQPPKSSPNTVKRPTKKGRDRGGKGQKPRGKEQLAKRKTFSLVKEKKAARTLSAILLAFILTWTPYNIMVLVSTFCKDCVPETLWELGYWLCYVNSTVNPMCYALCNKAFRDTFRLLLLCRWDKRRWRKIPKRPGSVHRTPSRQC
- protocol.description: Positive allosteric modulation of rat M1 receptor expressed in CHO cells assessed as increase in acetylcholine-induced calcium mobilization pretreated for 2.5 mins followed by acetylcholine addition and measured after 1 min by Fluo-4-AM dye based assay
- Format: functional, cell-based
assay.readout: %max (%)
I only need the number, in %, no unit after it.

# example entries with known answers
{"compound.structure.string": "Cn1ccc(-c2ccc(Cc3cc(C(=O)N[C@@H]4CCCC[C@H]4O)nc4c3ccn4C)cc2)n1", "%max / %": 87}
{"compound.structure.string": "Cn1cc(-c2ccc(Cc3cc(C(=O)N[C@@H]4CCCC[C@H]4O)nc4c3ccn4C)cn2)cn1", "%max / %": 89}
{"compound.structure.string": "Cn1ccc(-c2ccc(Cc3cc(C(=O)N[C@@H]4CCOC[C@H]4O)nc4c3ccn4C)cn2)n1", "%max / %": 86}
{"compound.structure.string": "Cn1ccc(-c2ccc(Cc3cc(C(=O)NC[C@@H]4CCCO4)nc4c3ccn4C)cn2)n1", "%max / %": 84}

Per the records, this compound ( `Cc1nc(-c2ccc(Cc3cc(C(=O)NC4CCOCC4)nc4c3ccn4C)cc2)co1` ) has %max equal to 88

Per the records, this compound ( `Cn1ccc2c(Cc3ccc(-c4nccs4)cc3)cc(C(=O)NC3CCOCC3)nc21` ) has %max equal to 78

Per the records, this compound ( `Cn1ccc(-c2ccc(Cc3cc(C(=O)NC4CCOCC4)nc4c3ccn4C)cc2)n1` ) has %max equal to 89

Per the records, this compound ( `Cn1ccc(-c2ccc(Cc3cc(C(=O)NCC4CCOCC4)nc4c3ccn4C)cn2)n1` ) has %max equal to 87

Per the records, this compound ( `Cn1ccc(-c2ccc(Cc3cc(C(=O)N[C@@H]4CCOC[C@H]4O)nc4c3ccn4C)cc2)n1` ) has %max equal to 87

* * *

Catalogue of molecules with associated EC50
- target.entity: Muscarinic acetylcholine receptor M1 (Rattus norvegicus, UniProt P08482)
- protocol.description: Agonist activity at rat M1 receptor expressed in CHO cells assessed as increase in calcium mobilization measured after 2.5 mins by Fluo-4-AM dye based assay
- Type: functional, cell-based
- condition.set: read-out: pEC50 (converted)

Per the records, this molecule ( `Cn1ccc2c(Cc3ccc(-n4cccn4)cc3)cc(C(=O)NC3CCOCC3)nc21` ) has EC50 equal to > 10 µM

Per the records, this molecule ( `Cn1ccc(-c2ccc(Cc3cc(C(=O)NC4CCOCC4)nc4c3ccn4C)cn2)n1` ) has EC50 equal to > 10 µM

Per the records, this molecule ( `Cn1ccc2c(Cc3ccc(-c4cscn4)cc3)cc(C(=O)NC3CCOCC3)nc21` ) has EC50 equal to > 31.6 µM

Per the records, this molecule ( `Cn1cc(-c2ccc(Cc3cc(C(=O)NC4CCOCC4)nc4c3ccn4C)cn2)cn1` ) has EC50 equal to > 10 µM

Per the records, this molecule ( `Cn1ccc(-c2ccc(Cc3cc(C(=O)N[C@@H]4CCC[C@H]4O)nc4c3ccn4C)cn2)n1` ) has EC50 equal to > 10 µM

Per the records, this molecule ( `Cn1ccc2c(Cc3ccc(-c4nccs4)cc3)cc(C(=O)N[C@@H]3CCCC[C@H]3O)nc21` ) has EC50 equal to > 31.6 µM

Per the records, this molecule ( `Cn1ccc(-c2ccc(Cc3cc(C(=O)NCC4CCOCC4)nc4c3ccn4C)cn2)n1` ) has EC50 equal to > 31.6 µM

Per the records, this molecule ( `Cn1ccc2c(Cc3ccc(-c4nccs4)cc3)cc(C(=O)NC3CCOCC3)nc21` ) has EC50 equal to > 31.6 µM

Per the records, this molecule ( Cn1ccc(-c2ccc(Cc3cc(C(=O)NC4CCOC(C)(C)C4)nc4c3ccn4C)cn2)n1 (centres undefined) ) has EC50 equal to > 10 µM
